System: UniProt Q14123 | Read-out: IC50 | Origin: multiple publications
Give bare numbers, in nM.

Previously resolved entries follow.
In [3]: df
Out[3]:
                                   compound  endpoint_unit  test_result
0  COc1cccc(Cn2c(C)nn3c(C4CCOCC4)ncc3c2=O)c1             nM           52
1         O=c1c2cnc(C3CCOCC3)n2ccn1CC1CCCC1             nM           79
2  CCCn1ncc2nc(-c3cccnc3OCC)cc(N[C@@H]3CCOC3)c21 (single isomer, unassigned)             nM         2540
3  COc1ccc(Cn2c(CC3CCCC3)cn3c(C4CCOCC4)ncc3c2=O)cc1             nM           79

Okay, here is my list. What is IC50 for each of these?
1. Cn1c(Cc2ccc(-c3cnccn3)cc2)cn2c(C3CCOCC3)ncc2c1=O
2. CCOc1ncccc1-c1ccn2c([C@H](C)CC)nc(C)c2n1 (single isomer, unassigned)
3. CCCOc1ncccc1-c1cc(NCc2cn(C)cn2)c2c(C(C)C)nn(C)c2n1
4. COc1ccc(Cn2c(C)cn3c(C4CCc5ccc(Cl)cc54)ncc3c2=O)cc1 (stereo not drawn)
5. COc1ccc(Cn2c(C)cn3c(C4(C)CCN(S(N)(=O)=O)C4)ncc3c2=O)cc1 (stereo not drawn)

[198, 77, 3.8, 3, 417]

Okay, here is my list. What is IC50 for each of these?
1. CCCOc1ncccc1-c1cc(NCc2cnn(C)c2)c2c(C(C)C)nc(C)n2n1
2. CCOc1ncccc1-c1cc(NCc2cccnc2C(F)(F)F)c2c(C(C)C)nc(C)n2n1
3. O=c1[nH]c(Cc2ccc(-c3ccccn3)cc2)cn2c(C3CCOCC3)ncc12
4. Cc1cccc(Cn2c(C)cn3c(C4CCOCC4)ncc3c2=O)c1
5. CCOc1ncccc1-c1cc(NCc2cccc(C)n2)c2c(C(C)C)nn(C)c2n1

7
72
22
9
200

Okay, here is my list. What is IC50 for each of these?
1. COc1ccc(Cn2c(C)nn3c(C4CCOCC4)ncc3c2=O)cc1
2. Cc1cn2c(C3CCOCC3)ncc2c(=O)n1Cc1ccc(Cl)cc1

21
51
